The origin of these recorded values is ChEMBL document CHEMBL1126373.

Listing: pIC50 of selected compounds
# Test system: Human immunodeficiency virus 1
# ASSAY_SUMMARY: Anti-HIV activity in cell culture assay expressed as IC50 values.
# Assay type: functional, organism-based
# TEST_SETTINGS: Human immunodeficiency virus 1
API: returns pIC50 as number; meaning -log10 of concentration in mol/L.

Guide cases for pIC50, answers given:
{"columns": ["COMPOUND", "pIC50"],
 "data": [
  ["O=C(O)C1=C[C@@H](O)[C@@H](O)[C@H](OC(=O)c2cc(O)c(O)c(O)c2)C1", 4.60],
  ["O=C1O[C@H]2[C@@H]3OC(=O)c4cc(O)c(O)c(O)c4-c4c(cc(O)c(O)c4O)C(=O)OC[C@H]2O[C@@H](OC(=O)c2cc(O)c(O)c(O)c2)[C@@H]3OC(=O)c2cc(O)c(O)c3c2[C@@H]2C1=CC(=O)C(O)(O)C2(O)O3 (stereo not given in full)", 4.85],
  ["O=C1OCC2OC(=O)c3cc(O)c(O)c(O)c3-c3c(O)c(O)c(O)c4c3C(=O)OC(C2OC(=O)c2cc(O)c(O)c(O)c2-c2c1cc(O)c(O)c2O)C1OC(=O)c2c-4c(O)c(O)c(O)c2[C@@H]1c1c(O)cc(O)c2c1O[C@H](c1ccc(O)c(O)c1)[C@@H](O)C2 (stereo not given in full)", 4.82]
]}

Value lookup for pIC50; key = O=C1OCC2OC(=O)c3cc(O)c(O)c(O)c3-c3c(O)c(O)c(O)c4c3C(=O)OC(C2OC(=O)c2cc(O)c(O)c(O)c2-c2c1cc(O)c(O)c2O)C1OC(=O)c2c-4c(O)c(O)c(O)c2[C@H]1O (stereo not given in full)
4.82

Value lookup for pIC50; key = O=C1c2c(O)cc(O)cc2O[C@H](c2ccc(O)c(O)c2)[C@H]1O [(+)-TAXIFOLIN]
4.35

###

Listing: selectivity ratio of selected compounds
# System: Human immunodeficiency virus 1
# ASSAY_SUMMARY: Therapeutic index was determined
# TEST_SETTINGS: read-out: Therapeutic index
# output: bare number, no unit

Guide cases for selectivity ratio, answers given:
{"columns": ["COMPOUND", "READOUT", "ENDPOINT_VALUE"],
 "data": [
  ["O=C1OCC2OC(=O)c3cc(O)c(O)c(O)c3-c3c(O)c(O)c(O)c4c3C(=O)OC(C2OC(=O)c2cc(O)c(O)c(O)c2-c2c1cc(O)c(O)c2O)C1OC(=O)c2c-4c(O)c(O)c(O)c2[C@H]1O (some centres undefined)", "selectivity ratio", 0.9],
  ["O=C(OC[C@H]1O[C@@H](OC(=O)c2cc(O)c(O)c(O)c2)[C@H](OC(=O)c2cc(O)c(O)c(O)c2)[C@@H](OC(=O)c2cc(O)c(O)c(O)c2)[C@@H]1OC(=O)c1cc(O)c(O)c(O)c1)c1cc(O)c(O)c(O)c1 (stereo in doubt; 11)", "selectivity ratio", 2.5],
  ["O=C(O)C1=C[C@@H](O)[C@@H](O)[C@H](OC(=O)c2cc(O)c(O)c(O)c2)C1", "selectivity ratio", 1.4],
  ["O=C(OC[C@@H]1O[C@@H](OC(=O)c2cc(O)c(O)c(O)c2)[C@@H](OC(=O)c2cc(O)c(O)c(O)c2)[C@@H](OC(=O)c2cc(O)c(O)c(O)c2)[C@@H]1OC(=O)c1cc(O)c(O)c(O)c1Oc1cc2c(c(O)c1O)-c1c(cc(O)c(O)c1O)C(=O)OC[C@@H]1O[C@@H](OC(=O)c3cc(O)c(O)c(O)c3)[C@@H](OC(=O)c3cc(O)c(O)c(O)c3)[C@@H](OC(=O)c3cc(O)c(O)c(O)c3)[C@@H]1OC2=O)c1cc(O)c(O)c(O)c1", "selectivity ratio", 3.3],
  ["O=C(OC[C@H]1OC(O)[C@@](O)(COC(=O)c2cc(O)c(O)c(O)c2)[C@@H]1OC(=O)c1cc(O)c(O)c(O)c1)c1cc(O)c(O)c(O)c1 (some centres undefined)", "selectivity ratio", 0.9]
]}

Value lookup for selectivity ratio; key = O=C(O[C@@H]1O[C@H](CO)[C@@H](O)[C@H](O)[C@H]1O)c1cc(O)c(O)c(O)c1
0.8

Value lookup for selectivity ratio; key = CC1(C)CC[C@]2(C(=O)O)CC[C@]3(C)C(=CCC4[C@@]5(C)C[C@@H](O)[C@@H]6OC(=O)c7cc(O)c(O)c(O)c7-c7c(cc(O)c(O)c7O)C(=O)OC[C@@]6(CO)C5CC[C@]43C)C2C1 (some centres undefined)
1

Value lookup for selectivity ratio; key = O=C(OC[C@H]1O[C@@H](OC(=O)c2cc(O)c(O)c(O)c2)[C@H](OC(=O)c2cc(O)c(O)c(O)c2)[C@@H](O)[C@@H]1O)c1cc(O)c(O)c(O)c1
0.4
